Just for reference, BigSolDB 2.1 is where these values come from.

Conditions: in methanol, 313.15 K
property: solubility (mole fraction)

Retrieve solubility (mole fraction) measured for CCc1ccc(CCOc2ccc(CC3SC(=O)NC3=O)cc2)nc1.Cl (stereo unspecified) and print it. 0.0144

###

Conditions: in DMF, 318.15 K
property: solubility (mole fraction)
Just the number, please.

Retrieve solubility (mole fraction) measured for CCc1ccc(CCOc2ccc(CC3SC(=O)NC3=O)cc2)nc1.Cl (stereo unspecified) and print it. 0.0292

###

Details: in DMF, 278.15 K
property: solubility (mole fraction)
Just the number, please.

Retrieve solubility (mole fraction) measured for CCc1ccc(CCOc2ccc(CC3SC(=O)NC3=O)cc2)nc1.Cl (stereo unspecified) and print it. 0.0161

###

Conditions: in methanol, 293.15 K
property: solubility (mole fraction)

Retrieve solubility (mole fraction) measured for CCc1ccc(CCOc2ccc(CC3SC(=O)NC3=O)cc2)nc1.Cl (stereo unspecified) and print it. 0.00738

###

Details: in ethanol, 308.15 K
property: solubility (mole fraction)
Just the number, please.

Retrieve solubility (mole fraction) measured for CCc1ccc(CCOc2ccc(CC3SC(=O)NC3=O)cc2)nc1.Cl (stereo unspecified) and print it. 0.00147

###

Details: in DMF, 288.15 K
property: solubility (mole fraction)
Just the number, please.

Retrieve solubility (mole fraction) measured for CCc1ccc(CCOc2ccc(CC3SC(=O)NC3=O)cc2)nc1.Cl (stereo unspecified) and print it. 0.0183

###

Conditions: in methanol, 318.15 K
property: solubility (mole fraction)
Just the number, please.

Retrieve solubility (mole fraction) measured for CCc1ccc(CCOc2ccc(CC3SC(=O)NC3=O)cc2)nc1.Cl (stereo unspecified) and print it. 0.0173

###

Conditions: in n-propanol, 278.15 K
property: solubility (mole fraction)

Retrieve solubility (mole fraction) measured for CCc1ccc(CCOc2ccc(CC3SC(=O)NC3=O)cc2)nc1.Cl (stereo unspecified) and print it. 0.000325

###

Details: in DMF, 298.15 K
property: solubility (mole fraction)
Just the number, please.

Retrieve solubility (mole fraction) measured for CCc1ccc(CCOc2ccc(CC3SC(=O)NC3=O)cc2)nc1.Cl (stereo unspecified) and print it. 0.021

###

Details: in acetic acid, 303.15 K
property: solubility (mole fraction)
Just the number, please.

Retrieve solubility (mole fraction) measured for CCc1ccc(CCOc2ccc(CC3SC(=O)NC3=O)cc2)nc1.Cl (stereo unspecified) and print it. 0.00276

###

Details: in methanol, 323.15 K
property: solubility (mole fraction)
Just the number, please.

Retrieve solubility (mole fraction) measured for CCc1ccc(CCOc2ccc(CC3SC(=O)NC3=O)cc2)nc1.Cl (stereo unspecified) and print it. 0.0211

###

Conditions: in ethanol, 303.15 K
property: solubility (mole fraction)

Retrieve solubility (mole fraction) measured for CCc1ccc(CCOc2ccc(CC3SC(=O)NC3=O)cc2)nc1.Cl (stereo unspecified) and print it. 0.00121

###

Details: in methanol, 283.15 K
property: solubility (mole fraction)

Retrieve solubility (mole fraction) measured for CCc1ccc(CCOc2ccc(CC3SC(=O)NC3=O)cc2)nc1.Cl (stereo unspecified) and print it. 0.00494

###

Conditions: in acetic acid, 293.15 K
property: solubility (mole fraction)
Just the number, please.

Retrieve solubility (mole fraction) measured for CCc1ccc(CCOc2ccc(CC3SC(=O)NC3=O)cc2)nc1.Cl (stereo unspecified) and print it. 0.0015

###

Conditions: in DMF, 303.15 K
property: solubility (mole fraction)
Just the number, please.

Retrieve solubility (mole fraction) measured for CCc1ccc(CCOc2ccc(CC3SC(=O)NC3=O)cc2)nc1.Cl (stereo unspecified) and print it. 0.0227
